- ASSAYED_TARGET: hGSTM1-1 (Homo sapiens)
- ASSAY_NOTES: biochemical
- Set-up: made in house; host or cells: E. coli
- MEASUREMENT_SETUP: 25 μM pesticide; CDNB (1 mM)-GSH (2.5 mM) assay; mean of three assays, variation less than 5%
Inhibition (%) overview
I only need the number, in %, no unit after it.

*Q* For the record C#CCOc1ccc(CCNC(=O)C(OCC#C)c2ccc(Cl)cc2)cc1OC (stereo not drawn) [Mandipropamid] , what value of Inhibition (%) is listed for hGSTM1-1 (Homo sapiens)?
*A* 21.47

*Q* So what Inhibition (%) did COP(=O)(OC)OC=C(Cl)Cl [Dichloros] get with hGSTM1-1 (Homo sapiens)?
*A* 1.48

*Q* # returns recorded Inhibition (%) (system: hGSTM1-1 (Homo sapiens)) for CCC(C)(C)C(=O)OC1=C(c2ccc(Cl)cc2Cl)C(=O)OC12CCCCC2 [Spirodiclofen]
*A* 10.20

====

Documented inhibition at 25 µM across a set of molecules
- ASSAYED_TARGET: hGSTM1-1 (Homo sapiens, UniProt P09488)
- Sequence (P09488 1-218): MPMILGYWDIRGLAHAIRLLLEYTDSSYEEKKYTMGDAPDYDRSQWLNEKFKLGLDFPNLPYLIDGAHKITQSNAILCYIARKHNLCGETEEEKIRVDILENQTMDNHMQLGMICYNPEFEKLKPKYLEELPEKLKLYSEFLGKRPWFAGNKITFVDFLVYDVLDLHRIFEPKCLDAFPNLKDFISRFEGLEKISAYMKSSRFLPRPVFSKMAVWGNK
- ASSAY_NOTES: biochemical
- Parameters: made in house; host or cells: E. coli
Entry rule: numbers only, all in %.

Some solved cases for reference:
MOLECULE | MEASUREMENT
CNC(=O)Oc1cccc2ccccc12 | 0
N#C/N=C1\SCCN1Cc1ccc(Cl)nc1 | 10.7

*Q* Could you share what inhibition at 25 µM was measured for "COP(=S)(OC)Oc1c(Cl)cc(C)cc1Cl" , tested on hGSTM1-1 (Homo sapiens, UniProt P09488)?
*A* 9.32

*Q* Entry "CN/C(=N\[N+](=O)[O-])NCc1cnc(Cl)s1" , system hGSTM1-1 (Homo sapiens, UniProt P09488): what inhibition at 25 µM was measured?
*A* 0

*Q* // map CNC(=O)CSP(=O)(OC)OC [Omethoate] to recorded inhibition at 25 µM (system: hGSTM1-1 (Homo sapiens, UniProt P09488))
*A* 3.21

====

- ASSAYED_TARGET: hGSTM1-1 (Homo sapiens, UniProt P09488)
- ASSAY_NOTES: biochemical
- Set-up: made in house; host or cells: E. coli
- MEASUREMENT_SETUP: 25 μM pesticide; CDNB (1 mM)-GSH (2.5 mM) assay; mean of three assays, variation less than 5%; read-out: Inhibition (%)
RECORDED_ENDPOINT: inhibition at 25 µM (%)
Write down the numeric answer in % and omit the unit.

# example entries with known answers
COMPOUND | RECORDED_ENDPOINT | UNITS_OF_MEASURE | MEASUREMENT
CCOP(=S)(OCC)Oc1nc(Cl)c(Cl)cc1Cl | inhibition at 25 µM | % | 0
Cl[C@H]1[C@H](Cl)[C@@H](Cl)[C@@H](Cl)[C@H](Cl)[C@H]1Cl | inhibition at 25 µM | % | 13
COCC(=O)N(c1c(C)cccc1C)C(C)C(=O)OC (centres unmarked) [Metalaxyl] | inhibition at 25 µM | % | 19.8

*Q* Reported inhibition at 25 µM for "CO/N=C(/C1=NOCCO1)c1ccccc1Oc1ncnc(Oc2ccccc2Cl)c1F" : what is it?
*A* 18.5

*Q* Sample "O=C(NC(=O)c1ccccc1Cl)Nc1ccc(OC(F)(F)F)cc1" — what was its inhibition at 25 µM?
*A* 22.7

*Q* Looking for the measured inhibition at 25 µM of "CCc1cccc(CC)c1N(COC)C(=O)CCl" , can you help?
*A* 32

*Q* Give its inhibition at 25 µM value. Item: CC(C)(C)C(O)C(Oc1ccc(Cl)cc1)n1cncn1 (centres unmarked)
*A* 0

*Q* Quick one: inhibition at 25 µM for CC1(C)[C@H](C(=O)O[C@H](C#N)c2cccc(Oc3ccccc3)c2)[C@@H]1/C=C(\Cl)C(F)(F)F (racemic) ?
*A* 0

====

- ASSAYED_TARGET: hGSTM1-1 (Homo sapiens, UniProt P09488)
- ASSAY_NOTES: Kinetic inhibition study with pirimicarb (Lineweaver-Burk and secondary plots)
- Format: biochemical
- Set-up: made in house; host or cells: E. coli
- MEASUREMENT_SETUP: Ki (binding to free enzyme), GSH as variable substrate; 37 °C, pH 6.5
- Procedure: Initial velocities for the catalyzed reaction of the isoenzyme hGSTM1-1 with GSH as a variable substrate were performed at 37 °C in a total volume of 1 mL mixture containing 0.75 μg of the isoenzyme GSTM1-1, 0.1 M potassium phosphate buffer (pH 6.5), 1 mM CDNB and different concentrations of GSH in the range of 0.0175–3.75 mM in the presence of different concentrations of the insecticide pirimicarb (0–40 μM). […] The kinetic parameters were determined using the computer program GraphPad Prism 7.
RECORDED_ENDPOINT: pKi
Value format note: pKi is -log10 of concentration (mol/L); just state the number.

*Q* So what does the record say about pKi for "Cc1nc(N(C)C)nc(OC(=O)N(C)C)c1C" ?
*A* 4.61

====

- ASSAYED_TARGET: hGSTM1-1 (Homo sapiens, UniProt P09488)
- Sequence (P09488 1-218): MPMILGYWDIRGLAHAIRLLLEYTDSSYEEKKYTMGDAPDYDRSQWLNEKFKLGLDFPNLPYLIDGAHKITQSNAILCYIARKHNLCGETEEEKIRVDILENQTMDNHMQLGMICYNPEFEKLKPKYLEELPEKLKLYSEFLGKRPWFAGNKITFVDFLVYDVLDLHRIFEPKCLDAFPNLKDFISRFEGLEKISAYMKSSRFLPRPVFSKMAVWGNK
- ASSAY_NOTES: biochemical
- Parameters: made in house; host or cells: E. coli
- MEASUREMENT_SETUP: 25 μM pesticide; CDNB (1 mM)-GSH (2.5 mM) assay; mean of three assays, variation less than 5%; read-out: Inhibition (%)
RECORDED_ENDPOINT: inhibition at 25 µM (%)
Express the result in % but write the number alone.

Check out these entries, answers already filled in.
COMPOUND | UNITS_OF_MEASURE | MEASUREMENT
OC(Cc1ccccc1Cl)(Cn1nc[nH]c1=S)C1(Cl)CC1 (stereo not shown) | % | 26.5
CC(C)NC(=O)N1CC(=O)N(c2cc(Cl)cc(Cl)c2)C1=O | % | 19.5
CO/N=C(/C(=O)OC)c1ccccc1COc1ccccc1C | % | 14.5

*Q* Any idea what inhibition at 25 µM was measured for "CC1(C(=O)Nc2ccc(O)c(Cl)c2Cl)CCCCC1" ?
*A* 35.3

====

- ASSAYED_TARGET: hGSTM1-1 (Homo sapiens, UniProt P09488)
- ASSAY_NOTES: biochemical
- Parameters: made in house; host or cells: E. coli
- MEASUREMENT_SETUP: 25 μM pesticide; CDNB (1 mM)-GSH (2.5 mM) assay; mean of three assays, variation less than 5%
- Experimental: Reduced GST assays were performed by monitoring the formation of the conjugate of CDNB (1 mM) with GSH (2.5 mM) at 340 nm (ε = 9.6 mM^−1cm^−1) for 120 s according to a published method. One unit of enzyme activity is defined as the amount of enzyme that produces 1 μmol of product per minute under the assay conditions. Pesticide screening and inhibition potency evaluation towards hGSTM1-1 were carried out in the assay system described above in the presence of 25 μM pesticide diluted in acetone. […]
// label = y if Inhibition (%) is not less than 1%, otherwise n

COMPOUND | ASSAYED_TARGET | CLASS
Cc1cc(C)c(C2=C(OC(=O)CC(C)(C)C)C3(CCCC3)OC2=O)c(C)c1 [Spiromesifen] | hGSTM1-1 (Homo sapiens, UniProt P09488) | y
O=S1OC[C@@H]2[C@H](CO1)[C@@]1(Cl)C(Cl)=C(Cl)[C@]2(Cl)C1(Cl)Cl (stereo partly drawn) [alpha Endosulfan] | hGSTM1-1 (Homo sapiens, UniProt P09488) | y
CCO[PH](=O)O [Fosetyl-Al] | hGSTM1-1 (Homo sapiens, UniProt P09488) | n
CO/C=C(/C(=O)OC)c1ccccc1COc1cccc(C(F)(F)F)n1 [Picoxystrobin] | hGSTM1-1 (Homo sapiens, UniProt P09488) | y

Consider the additional compound presented here.
*Q* Hi, just wondering whether COC(=O)Nc1nc2ccccc2[nH]1 [Carbedazim] shows Inhibition (%) of 1% or higher.
*A* y
